experiment: DUSP6 inhibitors restoring Erk phosphorylation by chemical complementation, primary imaging in DUSP6-transfected HeLa (AID 609); conditions: HeLa MKP-3 transfected, phospho-Erk imaging KS statistic; measured here: nuclear c-Myc green intensity z-score; at 10 µM; cells stimulated with TPA for 15 min
Label scheme for z-score: lower than -0.01 is False, -0.01 and above is True.

Worked set:
Nc1ccc(S(=O)(=O)c2ccc(N)cc2)cc1 ... True
CNCCCC12CCC(c3ccccc31)c1ccccc12 ... True
CCCSc1nnc2n(C)c(=O)c3c4c(sc3n12)CCC4 ... False
CCOC(=O)C1CCN(c2nc3ccccc3nc2C(C#N)C(=O)NCCc2ccccc2)CC1 (configuration not stated) ... True

Confirm if z-score reported for the molecule CCOc1cccc(C2C(C#N)=C(N)Oc3cc(C)oc(=O)c32)c1OCC (configuration not stated) is -0.01 or above.
False

Subsequent entry: COc1cc(OC)cc(C(=O)N2CCC(N3CCCCCC3)CC2)c1
False

Subsequent entry: COc1ccc(CN2CCC(=O)NC2=O)cc1
False

Subsequent entry: c1cncc(-c2nnc3sc(C4CCCCC4)nn23)c1
False

Subsequent entry: Cn1c(=O)n(CCC(=O)O)c2ccccc21
False

Subsequent entry: Cc1cc(C)n(Cc2ccc(C(=O)NCCC3=CCCCC3)o2)n1
True

====

test: inhibitors of Chlamydomonas gravitaxis, primary screen, whole organism, Chlamydomonas reinhardtii, WT vs cilia-less mutant, absorbance, 96-well (AID 463189); details: OD600 absorbance, 2 days, at 10 µM, stronger effect = higher value;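 also: 0% = wild type cc124 cells in DMSO and 100% = ciliumless bld1 mutant cells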
measured.metric: inhibition (%)
Please respond with the number in % and leave the unit unwritten.

Use the examples below as a reference point.
N=c1c(C(=O)NCc2ccccc2)cc2c(=O)n3ccccc3nc2n1Cc1ccco1 ... -4.74
CN(C)c1oc(-c2cccs2)nc1C#N ... 4.07
Nc1ccc2cn[nH]c2c1 ... -10.8
CC(=O)C(=[N+]=[N-])C(=O)NCc1ccccc1 ... 24.1
N#CCc1nc2c3c4c(sc3ncn2n1)CCCC4 ... 0.738
O=C1C2ON(c3ccccc3)C(c3ccncc3)C2C(=O)N1c1ccc(Br)cc1 (centres undefined) ... 24.8
COc1ccc(OC)c(C2/C(=C(/O)c3cnn(-c4ccccc4)c3C)C(=O)C(=O)N2CCN(C)C)c1 (centres undefined) ... 12
CC(C)(C)c1nnc2sc(SCC(=O)c3ccccc3)nn2c1=O ... 11.5

With those in mind, consider the next compound.
So what's the measured inhibition for this one? COc1cccc(N2CCN(c3ncnc4c3[nH]c3ccc(F)cc34)CC2C)c1 (centres undefined)
25.3

====

Examples of compounds with documented z-score follow.
test: DUSP6 inhibitors restoring Erk phosphorylation by chemical complementation, primary imaging in DUSP6-transfected HeLa (AID 609); conditions: HeLa MKP-3 transfected, phospho-Erk imaging KS statistic; measured here: nuclear c-Myc green intensity z-score; at 10 µM; cells stimulated with TPA for 15 min

Use the examples below as a reference point.
O=C1C=C(NCCNc2c(F)c(F)c(CO)c(F)c2F)CCC1 ... -0.53
CC(=O)Nc1ccc(Oc2ccc3nc(C)[nH]c3c2)cc1 ... -0.885
COC(=O)c1ccc(-c2sc3nc(N4CCOCC4)c4c(c3c2N)CC(C)(C)OC4)o1 ... 1.71
C/C(=N\O)C1(C)N(O)C(C)(C)C(c2ccco2)=[N+]1[O-] (centres undefined) ... -1.17
CCc1cc(=O)oc2c(CN3CCCC3)c(O)c(Cl)cc12 ... -0.243
COc1ccccc1N(O)C1CC(=O)N(c2ccc(F)cc2)C1=O (centres undefined) ... 1.54

So what's the measured z-score for this one? CC(=O)C1=C(O)C(=O)N(c2cccc(C(=O)O)c2)C1c1ccccc1F (centres undefined)
0.7

Subsequent entry: COCCOCCOCCC(=O)NC1CC2CCC1(C)C2(C)C (centres undefined)
-0.414

Subsequent entry: COCCCN1C(=O)C(O)=C(C(=O)c2ccco2)C1c1ccc(Br)cc1 (centres undefined)
0.864
